Biological target: Atrial natriuretic peptide receptor 2 (Homo sapiens)
Assay: Natriuretic polypeptide receptor (hNpr2) antagonism - Pilot subtype selectivity assay (AID 1347050)
Details: NPR2-expressing cells, cGMP antagonist-mode read-out; series mostly up to 38.3 µM
Records with an inconclusive call do not appear. Calls of active or inactive are those of the source. Calls come from the whole dose curve.
attribute-measured: outcome

INSERT INTO results (molecule, target_of_assay, data_value) VALUES
  ('COc1cc(C(O)CO)ccc1O (stereo not drawn)', 'Atrial natriuretic peptide receptor 2 (Homo sapiens)', 'inactive'),
  ('NC1(C(=O)O)CCCCC1', 'Atrial natriuretic peptide receptor 2 (Homo sapiens)', 'inactive'),
  ('COc1ccc(CCn2nnnc2C2(c3ccc(C)cc3)CC2)cc1', 'Atrial natriuretic peptide receptor 2 (Homo sapiens)', 'inactive');

###

Assay: Primary qHTS for small molecule stabilizers of the endoplasmic reticulum resident proteome: Secreted ER Calcium Modulated Protein (SERCaMP) assay (AID 1508630)
Conditions: SH-SY5Y GLuc-SERCaMP (Gaussia luciferase released on ER calcium loss) secretion, thapsigargin, luminescence; series mostly up to 38.4 µM
Inconclusive results are not listed. Activity calls are given as the source filed them. Calls come from the whole dose curve; as a rule, active = well fitted inhibition curve with a large enough effect; inconclusive = small, poorly fitted or top-dose-only effect; inactive = no such curve, though single readings can be large or run the other way.
Return exactly one item of active, inactive

INSERT INTO measurements (molecule, label) VALUES
  ('CCC1(O)CC2CN(CCc3c([nH]c4ccccc34)[C@@](C(=O)OC)(c3cc4c(cc3OC)N(C)C3[C@]45CCN4CC=C[C@@](CC)([C@@H](OC(C)=O)[C@]3(O)C(=O)OC)[C@H]45)C2)C1 (some centres undefined)', 'inactive'),
  ('CN[C@H](CC(=O)O)C(=O)O', 'inactive'),
  ('Nc1ncnc2c1nc(Br)n2C1OC2COP(=O)(O)O[C@@H]2C1O (some centres undefined)', 'inactive'),
  ('CCN(CC)CCOC(=O)c1cc(Cl)c(N)cc1OC', 'inactive'),
  ('CC1CCN=C(N)S1 (centres undefined)', 'inactive');

Problem: Which outcome was assigned to COc1ccc(CCn2nnnc2C2(c3ccc(C)cc3)CC2)cc1 in this test?
Solution: inactive

Problem: What about CCCCCCCCCCCCCCSCC(=O)O ?
Solution: inactive

Problem: Query Cc1nc(N=Nc2ccc(C(=O)O)cc2)c(COP(=O)(O)O)c(C=O)c1O next
Solution: inactive

###

Target: N-terminal Xaa-Pro-Lys N-methyltransferase 1 (Homo sapiens) (UniProt Q9BV86)
Sequence (Q9BV86 whole entry, looked up): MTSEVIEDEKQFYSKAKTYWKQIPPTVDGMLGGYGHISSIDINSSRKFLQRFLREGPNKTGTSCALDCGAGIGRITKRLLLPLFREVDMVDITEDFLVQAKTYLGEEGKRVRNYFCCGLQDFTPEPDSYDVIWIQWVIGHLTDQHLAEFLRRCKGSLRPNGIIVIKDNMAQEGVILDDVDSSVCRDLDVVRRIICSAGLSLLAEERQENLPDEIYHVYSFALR
Test: qHTS Assay for Inhibitors of N-terminal methyltransferase 1 (NTMT1): LOPAC validation of the NTMT1 SAHH-coupled ThioGlo3 Assay (AID 1347143);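 note: SAH from peptide methylation measured as thiol fluorescence via SAHH coupling and ThioGlo3; nearly all actives have a fitted effect of over 70% in size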
Conditions: recombinant NTMT1, SAHH-coupled ThioGlo3 fluorescence; series mostly up to 114 µM
Source text: Assay Submitter (PI): Rong Huang Ph.D, Purdue University, West Lafayette, IN 47907 The N-terminal methytransferase 1 is the first methyltransferase that methylates protein alpha-N-amines and plays an important role in regulating cell mitosis, chromatin interactions and DNA repair. […] To address this unmet need, a panel of assay is created and established to enable quantitative high-throughput screening (qHTS) for novel, potent, and selective small molecule NTMT1 inhibitors. […]
Results filed as inconclusive are left out. The source made the active and inactive calls. Calls follow the shape of the dose curve; as a rule, active = well fitted inhibition curve with a large enough effect; inconclusive = small, poorly fitted or top-dose-only effect; inactive = no such curve, though single readings can be large or run the other way.
Outcome (select one): y for active, n for inactive

INSERT INTO assay_data (molecule, target_of_assay, label) VALUES
  ('Brc1c(Br)c(Br)c2[nH]cnc2c1Br', 'N-terminal Xaa-Pro-Lys N-methyltransferase 1 (Homo sapiens) (UniProt Q9BV86)', 'y');

Now consider a different molecule.
Problem: Dear colleague, could you share the recorded outcome for Nc1ccc(N2C(=O)c3ccccc3C2=O)c(Cl)c1 when you have a moment?
Solution: n
